Below: a set of entries, each annotated with reported Kd.
- assaySystem: ApNTD (Aeropyrum pernix, UniProt Q9YFY3)
- Construct: N-terminal editing domain, residues 1-136 of ThrRS-2, untagged, expressed in E. coli, homodimer
- Sequence (Q9YFY3 1-136): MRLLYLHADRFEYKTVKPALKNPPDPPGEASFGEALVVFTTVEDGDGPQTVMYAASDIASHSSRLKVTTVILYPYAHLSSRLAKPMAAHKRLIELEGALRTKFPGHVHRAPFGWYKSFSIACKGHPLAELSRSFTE
- assayComment: ITC (also crystal structure)
Field format: number, assumed µM, no unit text.

compound: C[C@@H](O)[C@H](N)C(=O)N[C@H]1[C@@H](O)[C@H](n2cnc3c(N)ncnc32)O[C@@H]1CO [L-threonyl-3′-aminoadenosine]
observedMeasurement: 13.4

Then there is this compound:
Data request, read-out Kd, for Nc1ncnc2c1ncn2[C@@H]1O[C@H](CO)[C@@H](NC(=O)[C@@H](N)CO)[C@H]1O [L-seryl-3′-aminoadenosine]
1

Values from paper PMC4491819
